STUDY SYSTEM: σ1 receptor (Homo sapiens, UniProt Q99720)
Sequence (Q99720 whole entry, species assumed): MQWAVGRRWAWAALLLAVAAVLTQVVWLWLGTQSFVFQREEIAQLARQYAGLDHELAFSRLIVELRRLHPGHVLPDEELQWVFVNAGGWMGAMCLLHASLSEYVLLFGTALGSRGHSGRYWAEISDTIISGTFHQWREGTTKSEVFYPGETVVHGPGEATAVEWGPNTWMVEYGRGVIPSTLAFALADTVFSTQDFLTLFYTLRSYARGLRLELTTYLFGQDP
METHOD NOTES: Competition binding versus σ1 receptor
TEST CONTEXT: read-out: Ki (nM) σ1
Would you kindly list Ki for each of these compounds?
Answers are plain numbers, in nM.

These solved cases illustrate the format of a correct answer.
CHEMICAL SMILES	Ki (nM)
CC[C@@H](CO)N1CCC(CCc2ccc(F)cc2F)CC1	1.7
O[C@@]1(CNCc2cccc3c2OCC3)CCc2ccccc21	1190
C[C@@H](c1ccccc1)[C@@H](O)CN1CCC(c2c[nH]c3ncccc23)CC1	128

Data request: Recorded Ki of C[C@@H](C(=O)N(C)Cc1cccc(F)c1)N1CC=C(c2c[nH]c3ncccc23)CC1 , please.
Data returned: 1470
